System: MIA PaCa-2
Details: OFD1 knockdown: no (no doxycycline)
Endpoint: IC50 cell viability (µM)

INSERT INTO results (compound, recorded_measurement) VALUES
  ('CC(=O)c1c(C)c2cnc(Nc3ccc(N4CCNCC4)cn3)nc2n(C2CCCC2)c1=O', 43.1),
  ('Cc1cc(C)c2c(c1)[C@@H](N(Cc1cc(C(F)(F)F)cc(C(F)(F)F)c1)c1nnn(C)n1)CCCN2C[C@H]1CC[C@H](C(=O)O)CC1', 7.47),
  ('CN(Cc1cnc2nc(N)nc(N)c2n1)c1ccc(C(=O)N[C@@H](CCC(=O)O)C(=O)O)cc1', 0.47),
  ('COc1cc2nccc(Oc3ccc(NC(=O)NC4CC4)c(Cl)c3)c2cc1C(N)=O', 21.1),
  ('CC(C)(C)NCC(O)c1ccc(O)c(CO)c1 (configuration not stated)', 4.57),
  ('CNC(=O)c1ccc(N2C(=S)N(c3ccc(C#N)c(C(F)(F)F)c3)C(=O)C2(C)C)cc1F', 29.5);

a. CCC(C)n1ncn(-c2ccc(N3CCN(c4ccc(OCC5COC(Cn6cncn6)(c6ccc(Cl)cc6Cl)O5)cc4)CC3)cc2)c1=O (configuration not stated)
b. N#Cc1ccc(C(c2ccc(C#N)cc2)n2cncn2)cc1
In terms of reported IC50 cell viability, does a or b have the smaller number? Answer with the label corresponding to your selection.
b
